Record form. Attribute: protein stability index. Fill in for each entry.
- Experiment: protein stability index of a GFP-peptide fusion (yeast GPS) (PSI 1-4); higher = more stable; sorted into four equal gates, so the index is relative within each strain
- Condition: doa10∆
One number for each entry.

Answered examples (3):
| Seq string | Measure | Reported measurement |
| --- | --- | --- |
| ELLDQVTLGREGQIIQR [CDC53] | protein stability index | 3.07 |
| KYRKRQLVTREAQIKDW [FAS2] | protein stability index | 2.81 |
| ACLGNDGILRLYDALEP [YGL100W/SEH1] | protein stability index | 2.21 |

Attention now shifts to the item below.
Fill blank: measured protein stability index of the sequence RKYSFNYSSLPSPYKTT [YAR002W/NUP60] is ____.
2.56

---

- Experiment: protein stability index of a GFP-peptide fusion (yeast GPS) (PSI 1-4); higher = more stable; sorted into four equal gates, so the index is relative within each strain
- Condition: ubr1∆
Please go through the items and note down their protein stability index.
Give bare numbers.

# annotated cases, reported protein stability index shown
| Seq string | protein stability index |
| --- | --- |
| VDIYSLPLISTDVLEIS [YMR129W/POM152] | 2.44 |
| GVEEEEELKDSEINEIL [SNF2] | 2.72 |
| ALNGIDINTVNTNLMNG [GRR1] | 3.1 |
| QILQGICKNCSAILLSE [RPO31] | 2.43 |
| IKEFVDDLKKDHIAIDW [DSN1] | 2.75 |

Working through the 2 sequences below one at a time, give protein stability index for each.
1. KCSTRGLSTDHTTQIVN [YML103C/NUP188]
2. HLPCTIEAEEAEEIGVE [RPN8]

1: 3.01; 2: 2.89

---

- Experiment: protein stability index of a GFP-peptide fusion (yeast GPS) (PSI 1-4); higher = more stable; sorted into four equal gates, so the index is relative within each strain
- Condition: san1∆
For each of the sequences below, state its protein stability index.
Answers are plain numbers.

| Seq string | Reported measurement |
| --- | --- |
| TRINGLNSNNSIIGNKN [REC8] | 3.21 |
| IESALKSKLDQDSTSEN [RPN2] | 2.87 |

Looking for the measured protein stability index of HVKNFGFANSLTFILGQ [YML031W/NDC1] , can you help?
1.42

---

- Experiment: protein stability index of a GFP-peptide fusion (yeast GPS) (PSI 1-4); higher = more stable; sorted into four equal gates, so the index is relative within each strain
- Condition: san1∆
Measure: protein stability index
One number for each entry.

| Seq string | Reported measurement |
| --- | --- |
| DLGIKYDPSIGIFGMDF [RPL11A] | 2.96 |
| SPMLSISNLTQEQVQDY [FAS1] | 2.98 |
| QEQGSFQHILRLLNTNV [RPS18A] | 2.91 |
| SKYGMLLLRCDDRVDKK [POP3] | 3.03 |

Next up:
Can you share its protein stability index? I mean this sequence: VQYLSGAHGNSDPVCLF [POP3]
3.04

---

Would you mind telling me the reported protein stability index of each entry?
- Experiment: protein stability index of a GFP-peptide fusion (yeast GPS) (PSI 1-4); higher = more stable; sorted into four equal gates, so the index is relative within each strain
- Condition: ubr1∆
Numbers only.

Example entries and their recorded answers appear below.
| Seq string | protein stability index |
| --- | --- |
| SVVHPGEMVGVLAAQSI [RPO21] | 1.26 |
| PEPSHIDQVMMSVSDND [RET1] | 2.48 |
| ELPLVITMPATNGKPDM [ARP7] | 2.99 |
| NESSLALEFVSLLLSSV [SRB4] | 1.6 |
| FIRSTNSWFDVTWRTFT [FAS1] | 1.34 |
| LNVSNTKENGDFTLPED [PRP8] | 3.21 |
| LNCGNGMGIGFIDHHAA [POP1] | 3.42 |
| LGSGSNVDVCVMEIGKD [PUP1] | 3.51 |
| LQIAQLTLKHRQNKVQH [RPN10] | 1.88 |
| GRLRNKSHKQTIVTGGG [RPP1] | 2.92 |

Batch of 7 sequences: report protein stability index for each.
1. ERYFDCCTKFFTMMTSE [PCI8]
2. PNIHQNLLPKKSAKATK [HTA1]
3. KSNVIDSMLFVFGFRAN [SMC4]
4. MERLQRLMMNSKVGSAD [RPN11]
5. YGAYNTQIANAGASPMV [PRE4]
6. VQYLSGAHGNSDPVCLF [POP3]
7. QNNKPSFVFGQAAAKPS [YLR335W/NUP2]

2.29
2.49
2.68
3.22
1.61
2.75
2.45

Working through the 5 sequences below one at a time, give protein stability index for each.
1. HSPFPFNRTKGKMVRAQ [PRP8]
2. FYDIRSLLERHIPRLIP [YJL039C/NUP192]
3. LRLVDDDENNPSHYPHP [RRP6]
4. GIDPTRIYTNSFIDIME [RPO21]
5. SGIRLIEPELFNGYNPE [FAS2]

1: 1.05; 2: 2.77; 3: 2.89; 4: 2.53; 5: 2.83

---

- Experiment: protein stability index of a GFP-peptide fusion (yeast GPS) (PSI 1-4); higher = more stable; sorted into four equal gates, so the index is relative within each strain
- Condition: doa10∆
Measure: protein stability index
One number for each entry.

Answered cases to consult:
| Seq string | Reported measurement |
| --- | --- |
| VSHHATTFTHCEIHPSM [RPB2] | 3.12 |
| PVSCIIQNDEEYDTPAL [PRP8] | 1.79 |
| AFFTYDAGVTFNKEQLN [ECM29] | 2.07 |

For each of the sequences below, state protein stability index.
1. LNSTLESLYDLIEFQPS [MED6]
2. LGGEINDNEDDDEEYDY [BRR2]
3. KERLTKEAAAVAEGKSK [RPL8A]
4. EERSNNLLTPQPTNFTT [MCD1]
5. FNQRDGEHEKSNILLNS [MED1]
6. IAQGIDLVRDIDIDKLI [SRP72]
7. EKAKSAGVQGSKVSKQQ [RPL24B]
8. SVLLHHKTMSIVGVLQD [RPT2]

[2.8, 3.5, 3.53, 3.02, 2.4, 1.65, 3.48, 1.34]

Here are 3 sequences. What values of protein stability index were reported for them?
1. QQTAKKLIPKLYRYRFD [ECM29]
2. YLAHEDNKEKDFELEIS [PRE10]
3. IVSFIVNCFHEDTELYQ [YJL039C/NUP192]

[2.24, 2.84, 1.62]

---

Assignment: determine reported protein stability index for the given sequences.
- Experiment: protein stability index of a GFP-peptide fusion (yeast GPS) (PSI 1-4); higher = more stable; sorted into four equal gates, so the index is relative within each strain
- Condition: doa10∆

Some solved cases for reference:
| Seq string | protein stability index |
| --- | --- |
| NSTDGAKITEIGSTSKR [YIL149C/MLP2] | 3.02 |
| EKKILNQFLKIKKKRKE [SMC1] | 2.98 |
| VWYGLSDGEDGHIPWHI [SSN2] | 3.05 |

Quick request: protein stability index for each listed item, please.
1. QKVQGESHIDSRNNTLN [SIR4]
2. LKTRYVGRQDPKKHLSE [RPN11]

[3.02, 3.08]

---

- Experiment: protein stability index of a GFP-peptide fusion (yeast GPS) (PSI 1-4); higher = more stable; sorted into four equal gates, so the index is relative within each strain
- Condition: pdr5∆
Measure: protein stability index
Answers are plain numbers.

Below are worked cases with known answers.
| Seq string | protein stability index |
| --- | --- |
| EEEVTDQLEDLREHFKN [QCR6] | 3.06 |
| LADILKANISLETLEHN [RPO21] | 2.91 |

Okay, next one:
Using the record for QVASIIESFVELGVSIY [NUT2] , report its protein stability index.
2.98

---

Record form. Attribute: protein stability index. Fill in for each entry.
- Experiment: protein stability index of a GFP-peptide fusion (yeast GPS) (PSI 1-4); higher = more stable; sorted into four equal gates, so the index is relative within each strain
- Condition: ubr1∆
Answers are plain numbers.

These recorded examples may help you get a feel for the data.
| Seq string | protein stability index |
| --- | --- |
| KSDDDDHTVDEIDHVEY [SRB8] | 2.91 |
| APHDSEATLLTNSNNGS [SNF5] | 2.97 |
| ATLGIDPPKGILLYGPP [RPT1] | 2.98 |

List reported protein stability index for each of these sequences:
1. LQIHSRKMTTDDDINWQ [RPT5]
2. YGKPTNQGVNELKYQRS [RPL15A]
3. KKFATVPTGGASSAAAG [RPP2B]

1: 3.06; 2: 3.03; 3: 3.06
